Molecular target: human MC3R (human, UniProt P41968 1-323)
Sequence (P41968 whole entry): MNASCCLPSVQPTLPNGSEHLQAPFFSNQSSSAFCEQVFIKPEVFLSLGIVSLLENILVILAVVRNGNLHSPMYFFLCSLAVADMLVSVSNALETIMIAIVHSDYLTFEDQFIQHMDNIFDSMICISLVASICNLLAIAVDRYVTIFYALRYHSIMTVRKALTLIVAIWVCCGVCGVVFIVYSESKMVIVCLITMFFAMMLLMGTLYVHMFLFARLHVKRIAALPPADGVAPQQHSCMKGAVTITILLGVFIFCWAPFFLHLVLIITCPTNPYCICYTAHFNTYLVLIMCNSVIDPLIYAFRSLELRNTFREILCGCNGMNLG
Assay: cell-based or functional assay
Non-standard residues stand in square brackets, D forms with d. Nle = CCCC[C@H](N)C(=O)O
Listing of recorded MC3R selectivity (relative to MC4R) by entry.

Ac-[Nle][dA]HFR[dW]DR[dF]G-OH (SMILES CCCC[C@H](NC(C)=O)C(=O)N[C@H](C)C(=O)N[C@@H](Cc1c[nH]cn1)C(=O)N[C@@H](Cc1ccccc1)C(=O)N[C@@H](CCCNC(=N)N)C(=O)N[C@H](Cc1c[nH]c2ccccc12)C(=O)N[C@@H](CC(=O)O)C(=O)N[C@@H](CCCNC(=N)N)C(=O)N[C@H](Cc1ccccc1)C(=O)NCC(=O)O) [CTX-1145]    535

Next, consider the following binder.
Asked: Any idea what its MC3R selectivity (relative to MC4R) is? The binder is H-YVMGRFR[dW]DRFG-OH (SMILES CSCC[C@H](NC(=O)[C@@H](NC(=O)[C@@H](N)Cc1ccc(O)cc1)C(C)C)C(=O)NCC(=O)N[C@@H](CCCNC(=N)N)C(=O)N[C@@H](Cc1ccccc1)C(=O)N[C@@H](CCCNC(=N)N)C(=O)N[C@H](Cc1c[nH]c2ccccc12)C(=O)N[C@@H](CC(=O)O)C(=O)N[C@@H](CCCNC(=N)N)C(=O)N[C@@H](Cc1ccccc1)C(=O)NCC(=O)O) [CTX-1548]
Given back: 267
